Biological target: T1, TNFR1 (Homo sapiens, UniProt P19438)
T1 chain: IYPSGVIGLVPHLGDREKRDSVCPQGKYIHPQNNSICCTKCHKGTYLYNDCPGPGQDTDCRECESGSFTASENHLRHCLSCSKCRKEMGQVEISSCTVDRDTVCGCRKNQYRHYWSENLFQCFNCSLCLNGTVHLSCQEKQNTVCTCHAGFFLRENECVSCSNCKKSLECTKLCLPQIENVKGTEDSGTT
Assay: yeast display SC50
EXPERIMENTAL_ENDPOINT: apparent Kd (screen)

Before answering, review these 3 worked examples.
{"BINDER": "E34T (designed binder) SMEEEVEKAAKEYEKKKKEAIEKHLEKLKAKDKTAAERFLKELEEAAKEYAKDEAKTMSEEEAKRRAKKYKEKVLLSELSEEEQKEIKEAEEKLVRTILKYVEEAAK", "apparent Kd (screen)": "0.446 nM"}
{"BINDER": "E37R (designed binder) SMEEEVEKAAKEYEKKKKEAIEKHLEKLKAKDKEAARRFLKELEEAAKEYAKDEAKTMSEEEAKRRAKKYKEKVLLSELSEEEQKEIKEAEEKLVRTILKYVEEAAK", "apparent Kd (screen)": "0.446 nM"}
{"BINDER": "E86H (designed binder) SMEEEVEKAAKEYEKKKKEAIEKHLEKLKAKDKEAAERFLKELEEAAKEYAKDEAKTMSEEEAKRRAKKYKEKVLLSELSEEEQKHIKEAEEKLVRTILKYVEEAAK", "apparent Kd (screen)": "1.69 nM"}

Next, consider the following binder.
Field apparent Kd (screen) (entry A63G (designed binder) SMEEEVEKAAKEYEKKKKEAIEKHLEKLKAKDKEAAERFLKELEEAAKEYAKDEAKTMSEEEGKRRAKKYKEKVLLSELSEEEQKEIKEAEEKLVRTILKYVEEAAK ) reads 11.4 nM

Source listed as paper PMC12416549.
